Numbers sourced from patent US8871753B2.

biological target: human JAK1 (a.a. 837-1142) (Homo sapiens); construct: human JAK1 (a.a. 837-1142); His tag (N); made in house; host or cells: insect cells (baculovirus); test: In vitro JAK kinase assay (HTRF, phosphorylation of a biotinylated peptide), JAK1; type: biochemical; conditions: Table D1; read-out: JAK1 IC50
Sequence (P23458 849-1154): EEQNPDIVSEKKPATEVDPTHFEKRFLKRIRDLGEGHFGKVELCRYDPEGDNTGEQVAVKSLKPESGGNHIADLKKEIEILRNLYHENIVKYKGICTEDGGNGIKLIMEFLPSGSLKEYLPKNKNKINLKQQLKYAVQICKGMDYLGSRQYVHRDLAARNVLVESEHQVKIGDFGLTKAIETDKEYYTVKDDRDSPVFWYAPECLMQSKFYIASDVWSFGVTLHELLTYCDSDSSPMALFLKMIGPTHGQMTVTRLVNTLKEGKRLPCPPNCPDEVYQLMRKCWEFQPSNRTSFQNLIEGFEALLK
Structures can show the parent of a compound that is named as a salt.
Measured pIC50, listed per entry.
Notebook: values listed as pIC50 are -log10 of the concentration (mol/L).

Worked cases, pIC50 given:
>>> readout_value("O=C(Nc1cc2cc(c1)OCCSc1cccc(c1)Nc1nc(ncc1Cl)N2)c1cccs1 [Example D63, trifluoroacetate]")
8.17
>>> readout_value("CS(=O)(=O)N1CC[C@H](CC(=O)Nc2ccc3cc2CCc2cncc(c2)Nc2ncc(Cl)c(n2)N3)C1 [Example D112, bis(trifluoroacetate)]")
8.00

Now, please, on to the next compound.
Entry Clc1cnc2nc1Nc1cccc(c1)OCCc1cc(CN3CCOCC3)cc(c1)N2 [Example D189, bis(trifluoroacetate)] : reported pIC50 = ?
8.12
